Origin of measurements: the supplement of paper PMC8728848

EXPERIMENTAL_TARGET: Gal3S6S(b1-4)GlcNAc6S
ASSAY_INFO: glycan array binding signal (z-score within array); higher = stronger binding
CONDITION_PARAMETERS: glycan notation: IUPAC condensed, linker removed
The sample as a whole holds a higher share of the strongest signals than the screen did.
Please respond with reported glycan array binding signal (z-score) for every item in the list.
Give a plain numeric answer without units written out.

**Query** Value lookup for glycan array binding signal (z-score); key = Aap arpt (Staphylococcus epidermidis) (protein) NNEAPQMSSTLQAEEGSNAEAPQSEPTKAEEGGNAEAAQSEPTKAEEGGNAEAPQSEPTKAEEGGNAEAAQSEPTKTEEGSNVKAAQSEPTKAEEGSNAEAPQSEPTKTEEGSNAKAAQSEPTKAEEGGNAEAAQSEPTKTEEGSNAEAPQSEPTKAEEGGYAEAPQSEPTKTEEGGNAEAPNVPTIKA
**Result** 1.02

**Query** So what's the measured glycan array binding signal (z-score) for this one? GNAT (Pseudomonas aeruginosa), Q9HV14 (protein) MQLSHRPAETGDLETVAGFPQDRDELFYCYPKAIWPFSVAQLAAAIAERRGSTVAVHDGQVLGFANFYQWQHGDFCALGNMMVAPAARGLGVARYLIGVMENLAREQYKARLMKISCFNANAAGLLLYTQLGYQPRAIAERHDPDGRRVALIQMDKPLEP
**Result** -0.379

**Query** Item Fap1 (Streptococcus parasanguis) (protein) KATSKGTEEKQDSVRENLDKMISEAEVLNDMAARKLITLDAEQQLELMKSLVATQSQLEATKNLIGDPNATVADLQIAYTTLGNNTQALGNELIKLNPNGQIYAVLNNTEASRAATLRSTTTGTKTTFTISDFSNGGTQYYWAGGNANNLKNPISSISAVYDSATGKISWTVEYDPTTILKSPALKTLKTYTGIYIDTSSDSKLSTPTNVLIDGAATNPVTNFYGNGSKGIEYVSKGTTKGVTKHTITFDTAFSGRANDLADLEIKMLAATTLSDPHFYEDGSKGNYGRYNGQTAPYVIANDSGTAIGGYQVSGVNADSIPSDTT has what recorded glycan array binding signal (z-score)?
**Result** 1.8
